Source listed as PubChem BioAssay (NCI).

Test: NCI Yeast Anticancer Drug Screen. Data for the rad50 strain (AID 155)
Conditions: S. cerevisiae rad50 strain growth inhibition; at 50.0 µM (retest, dose inferred, filed as 5.0)
This is part of a sample that, as a whole, favours compounds with a hit. Of some 79,000 tested, about 15% had one in any assay. Activity calls are given as the source filed them. No stated cut-off is given here; in the data, active means growth inhibition above about 70%; inactive means the rest.
Response enum: active, inactive

# example entries with known answers
>  <compound>
CSc1nc(C)c(C(=O)CCN2CCOCC2)s1

>  <cat>
inactive

$$$$
>  <compound>
COc1cc(C2c3cc4c(cc3C(OC3CCCCO3)C3COC(=O)C23)OCO4)cc(OC)c1OC (stereo unspecified)

>  <cat>
inactive

$$$$
>  <compound>
CC(=O)n1c(=S)n(C(C)=O)c2ccccc21

>  <cat>
active

$$$$

Q: For Cc1sc(Cc2ccccc2)nc1-c1ccc(N=Cc2ccc(N(CCOS(C)(=O)=O)CCOS(C)(=O)=O)cc2)cc1 , what call appears in the results of this test?
Result: active

Q: For CSc1nc(COC(=O)NC(C)C)c(COC(=O)NC(C)C)n1-c1ccccc1 , what call appears in the results of this test?
Result: inactive
